tgt: Fatty-acid amide hydrolase 1 (Homo sapiens)
Sequence (O00519 whole entry): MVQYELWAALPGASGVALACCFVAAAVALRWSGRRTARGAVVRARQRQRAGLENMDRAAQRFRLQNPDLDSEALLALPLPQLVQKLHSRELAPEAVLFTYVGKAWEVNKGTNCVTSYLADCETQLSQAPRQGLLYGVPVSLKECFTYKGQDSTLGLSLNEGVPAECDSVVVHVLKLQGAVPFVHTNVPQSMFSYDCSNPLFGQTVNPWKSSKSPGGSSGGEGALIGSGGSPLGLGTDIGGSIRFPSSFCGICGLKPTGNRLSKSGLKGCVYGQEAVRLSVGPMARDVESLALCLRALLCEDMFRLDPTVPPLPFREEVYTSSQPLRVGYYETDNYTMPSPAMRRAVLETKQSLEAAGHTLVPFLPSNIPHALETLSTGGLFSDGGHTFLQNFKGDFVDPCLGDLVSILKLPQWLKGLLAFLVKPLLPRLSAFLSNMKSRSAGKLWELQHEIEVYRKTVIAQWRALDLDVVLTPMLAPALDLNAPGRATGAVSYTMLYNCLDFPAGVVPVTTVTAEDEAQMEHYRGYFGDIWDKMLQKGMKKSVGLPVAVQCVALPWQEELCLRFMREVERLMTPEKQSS
assay_method_text: Substrate activity at human FAAH expressed in baculovirus infected Sf9 cells assessed as docosahexaenoic acid formation incubated for 60 mins by HPLC analysis
Type: ADME
test_parameters: sf9, 1 h
observed_property: Drug metabolism

In the examples that follow, each entry is paired with its recorded Drug metabolism.
# compound, Drug metabolism
measured = [
    ("CC/C=C\\C/C=C\\C/C=C\\C/C=C\\C/C=C\\C/C=C\\CCC(=O)NS(=O)(=O)C(C)(C)C", "Metabolite_Notdetected"),
    ("CC/C=C\\C/C=C\\C/C=C\\C/C=C\\C/C=C\\C/C=C\\CCC(=O)NCCO", "Metabolite_Detected"),
    ("CC/C=C\\C/C=C\\C/C=C\\C/C=C\\C/C=C\\C/C=C\\CCC(=O)NCCCO", "Metabolite_Detected"),
    ("CC/C=C\\C/C=C\\C/C=C\\C/C=C\\C/C=C\\C/C=C\\CCC(=O)NC(CO)CO", "Metabolite_Notdetected"),
    ("CC/C=C\\C/C=C\\C/C=C\\C/C=C\\C/C=C\\C/C=C\\CCC(=O)NCC(=O)O", "Metabolite_Detected"),
    ("CC/C=C\\C/C=C\\C/C=C\\C/C=C\\C/C=C\\C/C=C\\CCC(=O)NCCOCCO", "Metabolite_Detected"),
    ("CC/C=C\\C/C=C\\C/C=C\\C/C=C\\C/C=C\\C/C=C\\CCC(=O)NC(C)CO (stereo not drawn)", "Metabolite_Notdetected"),
]

Consider the record given below.
query: Form field: reported Drug metabolism of CC/C=C\C/C=C\C/C=C\C/C=C\C/C=C\C/C=C\CCC(=O)NCC(O)CO (stereo not drawn)
result: Metabolite_Detected
